# System: MOLM-14 cells
# TEST_DESCRIPTION: WST-1 cell proliferation assay, MOLM-14
# Assay type: cell-based, human
# TEST_PARAMETERS: Homo sapiens, MOLM-14, Table 7; cell proliferation; read-out: IC50 (μM) MOLM-14
Category key, based on recorded IC50: low band = under 2 µM, middle band = from 2 µM up to 6 µM, high band = 6 µM and over

QUERY_SMILES: O=C1C(Cl)=C(C2=C(N3CCN(CCO)CC3)C(=O)c3ccccc3C2=O)C(=O)c2ccccc21
MEASURED_TARGET: MOLM-14 cells
CATEGORY: low band
--
QUERY_SMILES: CN(C)C1=C(C2=C(N(C)C)C(=O)c3ccccc3C2=O)C(=O)c2ccccc2C1=O
MEASURED_TARGET: MOLM-14 cells
CATEGORY: middle band
--
QUERY_SMILES: CN(C)C1=C(C2=C(Cl)C(=O)c3ccccc3C2=O)C(=O)c2ccccc2C1=O
MEASURED_TARGET: MOLM-14 cells
CATEGORY: middle band

Task: Sort into band: O=C1C(NCCO)=C(C2=C(NCCO)C(=O)c3ccccc3C2=O)C(=O)c2ccccc21
Result: low band

###

Below, each entry is listed alongside its reported IC50.
# System: MV4-11 cells
# TEST_DESCRIPTION: WST-1 cell proliferation assay, MV4-11
# Type: cell-based, human
# TEST_PARAMETERS: Homo sapiens, MV4-11, Table 3; cell proliferation; read-out: MV411 IC50

MOLECULE: O=C1C(NCCO)=C(C2=C(NCCO)C(=O)c3ccccc3C2=O)C(=O)c2ccccc21
IC50: 0.2 µM
--
MOLECULE: CN(CCO)C1=C(C2=C(N(C)CCO)C(=O)c3ccccc3C2=O)C(=O)c2ccccc2C1=O
IC50: 5.25 µM
--
MOLECULE: COCCN(C)C1=C(C2=C(N(C)CCOC)C(=O)c3ccccc3C2=O)C(=O)c2ccccc2C1=O
IC50: 5.5 µM
--
MOLECULE: O=C1C(C2=C(N3CCN(CCOCCO)CC3)C(=O)c3ccccc3C2=O)=C(N2CCN(CCOCCO)CC2)C(=O)c2ccccc21
IC50: 140 µM
--
MOLECULE: CC(O)CNC1=C(C2=C(NCC(C)O)C(=O)c3ccccc3C2=O)C(=O)c2ccccc2C1=O (centres unmarked)
IC50: 3.94 µM

Task: So what's the measured IC50 for this one? CC(=O)OCCNC1=C(C2=C(NCCOC(C)=O)C(=O)c3ccccc3C2=O)C(=O)c2ccccc2C1=O
Result: 2.2 µM

Task: So what's the measured IC50 for this one? COc1ccc2c(c1)C(=O)C(NCCO)=C(C1=C(NCCO)C(=O)c3ccccc3C1=O)C2=O
Result: 1.16 µM

Task: So what's the measured IC50 for this one? O=C1C(NCCO)=C(C2=C(NCCO)C(=O)c3cc(F)ccc3C2=O)C(=O)c2ccccc21
Result: 2.05 µM

###

# System: THP-1 cells
# TEST_DESCRIPTION: WST-1 cell proliferation assay, THP-1
# Assay type: cell-based
# TEST_PARAMETERS: Homo sapiens, THP-1, read-out: IC50 THP1 (n)
ATTRIBUTE_MEASURED: pIC50
To interpret pIC50, take it as minus log10 of a concentration measured in moles per litre.

Task: So what's the measured pIC50 for this one? O=C1C(Cl)=C(C2=C(N3CC3)C(=O)c3ccccc3C2=O)C(=O)c2ccccc21
Result: 5.11

###

# Tested on: MOLM-14 cells
# TEST_DESCRIPTION: WST-1 cell proliferation assay, MOLM-14
# Type: cell-based, human
# TEST_PARAMETERS: Homo sapiens, MOLM-14, Table 9; cell proliferation; read-out: IC50 (μM) MOLM-14
ATTRIBUTE_MEASURED: IC50 (µM)
// units = µM; emit number, no label

Record excerpt, results attached:
QUERY_SMILES: O=C1C(NCCO)=C(C2=C(NCCO)C(=O)c3cc(F)ccc3C2=O)C(=O)c2ccccc21
MEASUREMENT_UNITS: µM
ASSAY_RESULT: 0.37
//
QUERY_SMILES: CC(=O)OCCNC1=C(C2=C(NCCOC(C)=O)C(=O)c3ccccc3C2=O)C(=O)c2ccccc2C1=O
MEASUREMENT_UNITS: µM
ASSAY_RESULT: 1
//
QUERY_SMILES: O=C1C(NCCO)=C(C2=C(NCCO)C(=O)c3ccccc3C2=O)C(=O)c2ccccc21
MEASUREMENT_UNITS: µM
ASSAY_RESULT: 0.15

Task: So what's the measured IC50 for this one? O=C1C(C2=C(N3CCC(O)CC3)C(=O)c3ccccc3C2=O)=C(N2CCC(O)CC2)C(=O)c2ccccc21
Result: 4.3

###

# Tested on: MV4-11 cells
# TEST_DESCRIPTION: WST-1 cell proliferation assay, MV4-11
# Format: cell-based, human
# TEST_PARAMETERS: Homo sapiens, MV4-11, Table 7; cell proliferation; read-out: IC50 (μM) MV411
Label Condition met when IC50 is strictly below 1 µM; at or above that, label Condition not met.

Solved cases (2 shown):
QUERY_SMILES: COCCN(C)C1=C(C2=C(N(C)CCOC)C(=O)c3ccccc3C2=O)C(=O)c2ccccc2C1=O
CATEGORY: Condition not met
--
QUERY_SMILES: CN(C)C1=C(C2=C(Cl)C(=O)c3ccccc3C2=O)C(=O)c2ccccc2C1=O
CATEGORY: Condition not met

Task: Does the reported IC50 of O=C1C(Cl)=C(C2=C(NCCO)C(=O)c3ccccc3C2=O)C(=O)c2ccccc21 stay below 1 µM?
Result: Condition not met

Task: Does the reported IC50 of O=C1C(Cl)=C(C2=C(Cl)C(=O)c3cc(Br)ccc3C2=O)C(=O)c2ccccc21 stay below 1 µM?
Result: Condition not met

Task: Does the reported IC50 of O=C1C(NCCO)=C(C2=C(NCCO)C(=O)c3ccccc3C2=O)C(=O)c2ccccc21 stay below 1 µM?
Result: Condition met

Task: Does the reported IC50 of O=C1C(Cl)=C(C2=C(N3CCN(CCO)CC3)C(=O)c3ccccc3C2=O)C(=O)c2ccccc21 stay below 1 µM?
Result: Condition met

Task: Does the reported IC50 of CN(CCO)C1=C(C2=C(N(C)CCO)C(=O)c3ccccc3C2=O)C(=O)c2ccccc2C1=O stay below 1 µM?
Result: Condition not met

Task: Does the reported IC50 of CN(C)CCN(C)C1=C(C2=C(Cl)C(=O)c3ccccc3C2=O)C(=O)c2ccccc2C1=O stay below 1 µM?
Result: Condition not met

Task: Does the reported IC50 of CN(C)C1=C(C2=C(N(C)C)C(=O)c3ccccc3C2=O)C(=O)c2ccccc2C1=O stay below 1 µM?
Result: Condition not met

###

# System: MOLM-14 cells
# TEST_DESCRIPTION: WST-1 cell proliferation assay, MOLM-14
# Format: cell-based, human
# TEST_PARAMETERS: Homo sapiens, MOLM-14, Table 9; cell proliferation; read-out: IC50 (μM) MOLM-14
ATTRIBUTE_MEASURED: IC50 (µM)
// units = µM; emit number, no label

Record excerpt, results attached:
COMPOUND: COc1ccc2c(c1)C(=O)C(NCCO)=C(C1=C(NCCO)C(=O)c3ccccc3C1=O)C2=O [Compound 104]
ASSAY_RESULT: 1.32
--
COMPOUND: CN(C)C1=C(C2=C(N(C)C)C(=O)c3ccccc3C2=O)C(=O)c2ccccc2C1=O [Compound 135]
ASSAY_RESULT: 2.8
--
COMPOUND: O=C1C(C2=C(N3CCN(CCO)CC3)C(=O)c3ccccc3C2=O)=C(N2CCN(CCO)CC2)C(=O)c2ccccc21 [Compound 116]
ASSAY_RESULT: 1.17

Task: Query for MOLM-14 cells: what IC50 does the record show for CN(CCO)C1=C(C2=C(N(C)CCO)C(=O)c3ccccc3C2=O)C(=O)c2ccccc2C1=O [Compound 118] ?
Result: 5.8

###

# Tested on: primary AML cells from patients
# TEST_DESCRIPTION: WST-1 cell proliferation assay, primary leukemia cells from patients
# Type: cell-based
# TEST_PARAMETERS: Homo sapiens; 48 hours, WST-1; read-out: IC50 against primary AML cells
pIC50: −log10 of the molar value.
ATTRIBUTE_MEASURED: pIC50

Task: So what's the measured pIC50 for this one? O=C1C(C2=C(N3CC3)C(=O)c3ccccc3C2=O)=C(N2CC2)C(=O)c2ccccc21 [Compound 101]
Result: ~5.70

###

# Test system: MV4-11 cells
# TEST_DESCRIPTION: WST-1 cell proliferation assay, MV4-11
# Assay type: cell-based, human
# TEST_PARAMETERS: Homo sapiens, MV4-11, Table 1; cell proliferation; read-out: MV411 IC50
Below, each entry is listed alongside its reported IC50.
// units = nM; emit number, no label

Record excerpt, results attached:
QUERY_SMILES: CN(C)CCN(C)C1=C(C2=C(Cl)C(=O)c3ccccc3C2=O)C(=O)c2ccccc2C1=O
MEASURED_TARGET: MV4-11 cells
IC50 [nM]: 1300
//
QUERY_SMILES: O=C1C(Cl)=C(C2=C(N3CCN(CCO)CC3)C(=O)c3ccccc3C2=O)C(=O)c2ccccc21
MEASURED_TARGET: MV4-11 cells
IC50 [nM]: 760
//
QUERY_SMILES: O=C1C(Cl)=C(C2=C(NCCO)C(=O)c3ccccc3C2=O)C(=O)c2ccccc21
MEASURED_TARGET: MV4-11 cells
IC50 [nM]: 1200

Next molecule, IC50 to be filled in.
Task: Query for MV4-11 cells: what IC50 does the record show for CN(C)C1=C(C2=C(Cl)C(=O)c3ccccc3C2=O)C(=O)c2ccccc2C1=O ?
Result: 2400
